Kindly state AUC/dose for each of the entries shown.
- Species: Mus musculus
- method.notes: Dose normalized AUC in mouse
- Type: ADME, organism-based
- measurement.conditions: in vivo
Note: state the figure and append the unit.

Look over these answered cases.
Cc1cc(NCc2c(C)cccc2Cl)c2cccc(C(N)=O)c2n1
86 ng·h/mL per mg/kg
Cc1cc(NCc2c(C)cccc2C)c2cccc(C(N)=O)c2n1
194 ng·h/mL per mg/kg

Shift focus to the following entry.
Entry Cc1cc(NCc2cccc(Cl)c2Cl)c2cccc(C(N)=O)c2n1 — recorded AUC/dose = 260 ng·h/mL per mg/kg
